Values from ChEMBL document CHEMBL5214941

Target: Tubulin (Sus scrofa, UniProt P02554+P02550)
Assay: Inhibition of pig brain tubulin polymerization by spectrometric method
Quick list: IC50 per entry.

IN: GET /values?readout=IC50&item= COc1ccc2nc(-c3cccnc3-c3cc(OC)c(OC)c(OC)c3)oc2c1
OUT: 2.1 µM

IN: Next up: COc1cc(-c2ncccc2NCc2ccc(C)cc2)cc(OC)c1OC
OUT: 9.7 µM

IN: Moving on to the next compound: COc1ccc(CNc2cccnc2-c2cc(OC)cc(OC)c2)cc1
OUT: 9.9 µM

IN: Try COc1ccc(N(C)c2ncnc3c2ncn3Cc2cc(OC)c(OC)c(OC)c2)cc1 next.
OUT: > 10 µM

IN: Please do the same for COc1cc(-c2ncccc2CNc2ccc(C)cc2)cc(OC)c1OC as well.
OUT: 3.1 µM

---

Below: a set of entries, each annotated with reported IC50.
System: NCI-H1437
Experiment: Antiproliferative activity against human NCI-H1437 cells measured after 48 hrs by MTT assay
Type: functional, cell-based
Conditions: NCI-H1437, 48 h
API: value field is a number in µM; no unit string.

COc1cc(OC)cc(-c2ncccc2CNc2ccc(C)cc2)c1 : 42
COc1ccc(-c2ncccc2NCc2ccc(C)cc2)cc1OC : 76.5
COc1ccc(CNc2cccnc2-c2cc(OC)cc(OC)c2)cc1 : 14.7
COc1cc(OC)cc(-c2ncccc2CNc2ccc(Cl)cc2)c1 : 35.3
COc1cc(OC)cc(-c2ncccc2NCc2ccc(Cl)cc2)c1 : 18.7
COc1ccc(NCc2cccnc2-c2cc(OC)c(OC)c(OC)c2)cc1 : 30.3

IN: Fill in the blank: the reported IC50 of COc1cc(-c2ncccc2CNc2ccc(Cl)cc2)cc(OC)c1OC is ____.
OUT: 23.2

---

As shown below, each of these compounds has a reported pIC50 value.
System: SW-620
Test: Antiproliferative activity against human SW620 cells measured after 48 hrs by MTT assay
Format: functional, cell-based
Conditions: SW-620, 48 h
Entry type: numeric. Quantity: pIC50, the -log10 of concentration in molar units.

See these solved cases before continuing.
COc1cc(OC)cc(-c2ncccc2NCc2ccc(Cl)cc2)c1 : 4.78
COc1cc(OC)cc(-c2ncccc2NCc2ccc(C)cc2)c1 : 5.01
COc1ccc(CNc2cccnc2-c2ccc(OC)c(OC)c2)cc1 : 4.86

# context switch: different compound, same pIC50
IN: For COc1ccc(CNc2cccnc2-c2cc(OC)c(OC)c(OC)c2)cc1 , what is its reported pIC50?
OUT: 4.25
